molecular target: C52Hg Brazilian variant (Acro) spike protein (SARS-CoV-2, UniProt P0DTC2 16-1213); assay: SPR (Carterra LSA); antibody on chip, spike protein as analyte; summary table
RESULT TYPE: pKd
Remember the convention: pKd equals -log10 of concentration in molar.

# BINDER, pKd
data = [
    ("Antibody 1-8 (Fc fusion) EVQLVESGGGLVQPGGSLRLSCAASGRTLSRYTMGWFRQAPGKEREFVASITSGGTTNYADSVKGRFTISADNSKNTAYLQMNSLKPEDTAVYYCAKEDVGKPFDWGQGTLVTVSS", 9.49),
]

Reported pKd, binder Antibody 1-10 (Fc fusion) EVQLVESGGGLVQPGSSLRLSCAASGGTFSSIGMGWFRQAPGKEREFVAAISWDGGATAYADSVKGRFTISADNSKNTAYLQMNSLKPEDTAVYYCAKEDVGKPFDWGQGTLVTVSS : ____
6.90
